Kindly supply the reported ED50 values for the records listed here.
test system: depressant effects of tetrabenazine; test: Blocking the depressant effects induced in mice by intravenous tetrabenazine (modified Englehardt procedure, increased tetrabenazine dosage); format: in vivo; details: Mus musculus, ip, compounds I.P.
Structures can show the parent of a compound that is named as a salt.
Numbers only, in mg/kg.

Would you please look over these solved cases?
COMPOUND	TARGET	QUANTITY UNIT	RECORDED MEASUREMENT
CN(C)CC=C(CCCBr)c1ccccc1 [Example 2, Hydrobromide]	depressant effects of tetrabenazine	mg/kg	0.5
CN(C)CCC=C(CCCCl)c1ccccc1 [Example 5, Oxalate]	depressant effects of tetrabenazine	mg/kg	10

Count: 4. Required value per item: ED50.
1. CN(C)CCC(=CCCBr)c1ccccc1 [Example 3, Hydrobromide]
2. CN(C)CCC(=CCCCl)c1cccc(C(F)(F)F)c1 [Example 7, Oxalate]
3. COc1ccc(C(=CCCCl)CCN(C)C)cc1 [Example 6, Hydrochloride]
4. CN(C)CCCC(=CCCCl)c1ccccc1 [Example 4, Oxalate]

Data returned:
[1.9, 15.5, 28.5, 20]

Count: 2. Required value per item: ED50.
1. CN(C)CCC(CCCCl)c1ccccc1 (centres unmarked) [Example 8, Hydrochloride]
2. CN(C)CCC(=CCCCl)c1ccccc1 [Example 1, Hydrochloride]

Data returned:
[3.6, 2.5]
